Numbers sourced from PubChem BioAssay (NCI).

As shown below, each of these molecules has a reported GI50 value.
- Tested on: SF-539 CNS
- assay.text: NCI tumour cell line growth inhibition, 48 h
metric: GI50

[
  {
    "molecule": "COc1cccc(Cn2c(-c3nonc3N)nc3ccccc32)c1",
    "observed.value": "0.237 µM"
  },
  {
    "molecule": "Fc1ccc(-c2nn3c(CNc4ccccc4)nnc3s2)cc1",
    "observed.value": "33.6 µM"
  },
  {
    "molecule": "O=C(CSc1nc2ccccc2nc1-c1ccccc1)Nc1ccc(Cl)cc1",
    "observed.value": "16.3 µM"
  },
  {
    "molecule": "C=C(C)[C@@H]1CC[C@]2(C(N)=O)CC[C@]3(C)[C@H](CC[C@@H]4[C@@]5(C)CC[C@H](O)C(C)(C)[C@@H]5CC[C@]43C)[C@@H]12",
    "observed.value": "1.78 µM"
  },
  {
    "molecule": "COc1ccc(CCN2CCCN3C2=Nc2ccccc2S3(=O)=O)cc1",
    "observed.value": "0.272 µM"
  },
  {
    "molecule": "COC(=O)C(Cc1cnc[nH]1)NC(=O)CNC(=O)CCCn1c(=O)c2c3ccccc3n(C)c2n2nnc(-c3ccccc3)c12 (configuration not stated)",
    "observed.value": "> 100 µM"
  },
  {
    "molecule": "Cc1ccc2c(c1)C(C)Cc1c(ncnc1-n1cnc3cc(C)ccc31)N2C (configuration not stated)",
    "observed.value": "0.0218 µM"
  },
  {
    "molecule": "O=C(N/N=C/c1ccccc1O)C(O)(c1ccccc1)c1ccccc1",
    "observed.value": "> 100 µM"
  },
  {
    "molecule": "COc1c2c3ccccc3nc-2n(C)c2ccccc12",
    "observed.value": "8.83 µM"
  },
  {
    "molecule": "C[C@@H](N)C1CCC(C(=O)Nc2ccncc2)CC1 (some centres not stated)",
    "observed.value": "> 100 µM"
  },
  {
    "molecule": "Cc1nc2ccccn2c1NC(=O)NNC(=S)Nc1ccc(Br)cc1",
    "observed.value": "22.4 µM"
  },
  {
    "molecule": "N.N.N.N.O=NN1CCCCCC1(P(=O)([O-])[O-])P(=O)([O-])[O-].[Pt+4].[Pt+4]",
    "observed.value": "> 100 µM"
  }
]

* * *

As shown below, each of these compounds has a reported GI50 value.
- System: SK-MEL-5 melanoma
- assay.text: NCI tumour cell line growth inhibition, 48 h
metric: GI50

[
  {
    "smiles.structure": "Fc1ccc(-c2nn3c(CNc4ccccc4)nnc3s2)cc1",
    "observed.value": "17.5 µM"
  },
  {
    "smiles.structure": "Cc1cccc(-c2nn3c(c2-c2ccnc4ccc(C(N)=O)cc24)CCC3)n1",
    "observed.value": "> 100 µM"
  },
  {
    "smiles.structure": "CN[C@@H](C)C(=O)N[C@H]1CN(C(=O)CC(C)C)CC[C@H]2CC[C@@H](C(=O)NC(c3ccccc3)c3ccccc3)N2C1=O",
    "observed.value": "41.9 µM"
  },
  {
    "smiles.structure": "NCCCCCCCCn1c2c(c3ccccc3c1=O)C(=O)c1ccccc1-2",
    "observed.value": "1.91 µM"
  },
  {
    "smiles.structure": "N.N.N.N.O=NN1CCCCCC1(P(=O)([O-])[O-])P(=O)([O-])[O-].[Pt+4].[Pt+4]",
    "observed.value": "> 100 µM"
  }
]

* * *

As shown below, each of these compounds has a reported TGI value.
- Tested on: UO-31 renal
- assay.text: NCI tumour cell line growth inhibition, 48 h

[
  {
    "compound": "CC1=C(C(=O)Nc2ccccc2)C(c2ccc([N+](=O)[O-])cc2)C(C(=O)Nc2ccccc2)=C(C)N1",
    "TGI": "> 100 µM"
  },
  {
    "compound": "CSc1nc(NC2OCC(OC(C)=O)C(OC(C)=O)C2OC(C)=O)c(N=C(C)C(C)=O)c(=O)n1C (centres undefined)",
    "TGI": "> 100 µM"
  },
  {
    "compound": "COc1ccc2oc(=Nc3ccccc3)c(C(N)=O)cc2c1",
    "TGI": "> 55.6 µM"
  },
  {
    "compound": "COc1ccc(/C=C/C(=O)C(C)(C)CN2CCCCC2)cc1",
    "TGI": "41.3 µM"
  },
  {
    "compound": "CCSC(SCC)c1cc2c(cc1Br)OCO2",
    "TGI": "85.3 µM"
  },
  {
    "compound": "Cc1ccc(S(=O)(=O)Oc2ccc([N+](=O)[O-])cc2[N+](=O)[O-])cc1",
    "TGI": "9.26 µM"
  },
  {
    "compound": "CC(=O)NC(CCCCN(Cc1ccccc1)C(=O)NCCCl)C(=O)NCc1ccccc1 (centres undefined)",
    "TGI": "> 100 µM"
  },
  {
    "compound": "O=C1Nc2cc(Cl)ccc2N=CC1NC(=O)C(c1ccccc1)c1ccccc1Cl (centres undefined)",
    "TGI": "> 100 µM"
  },
  {
    "compound": "Cc1c(-c2ccccc2)[nH]c2ccc(Cl)cc2c1=O",
    "TGI": "0.507 µM"
  },
  {
    "compound": "COc1cc2c3c(c4ccc(OC)c(OC)c4c2cc1OC)CN1CCC[C@@H]1C3",
    "TGI": "0.291 µM"
  },
  {
    "compound": "COC(=O)[C@H]1[C@@H](O)[C@@]2(O)c3c(OC)cc(O[C@@H]4O[C@@H]([C@H](O)CO)CO[C@H]4OC)cc3O[C@@]2(c2ccc(OC)cc2)[C@@H]1c1ccccc1",
    "TGI": "0.755 µM"
  },
  {
    "compound": "O=C1C=CC(=O)c2c1cc([N+](=O)[O-])c1ccoc21",
    "TGI": "8.09 µM"
  },
  {
    "compound": "Cc1cc(=O)oc2cc(SC(=O)N(C)C)ccc12",
    "TGI": "> 100 µM"
  },
  {
    "compound": "COc1cc2c(F)nccc2cc1C(=O)N[C@@H](c1ccc(F)c(Cl)c1)[C@@H]1C[C@@H](O)CN1",
    "TGI": "15.4 µM"
  },
  {
    "compound": "CC(=O)[O-].CC(=O)[O-].O=C(N/N=C/c1cc(Cl)cc(Cl)c1O)c1ccncc1.[Ni+2]",
    "TGI": "> 100 µM"
  },
  {
    "compound": "Cc1ccc(S(=O)(=O)N2c3ccccc3[C@H]3CCc4c([nH]c5ccccc45)[C@H]32)cc1",
    "TGI": "> 100 µM"
  },
  {
    "compound": "CC(=O)OCC1OC(n2c(C#N)cc(=O)[nH]c2=O)CC1OC(C)=O (centres undefined)",
    "TGI": "> 100 µM"
  },
  {
    "compound": "CCOC(=O)C(NC(=O)C(CCCCNP(=O)(OCC)OCC)NC(=O)C(C)NC(C)=O)C(C)C (centres undefined)",
    "TGI": "> 100 µM"
  },
  {
    "compound": "CCSC1=N/C(=C\\c2ccco2)C(NN)=N1",
    "TGI": "> 50 µM"
  },
  {
    "compound": "Cc1nn2c(=O)c([N+](=O)[O-])c(/C=C/c3ccco3)nc2s1",
    "TGI": "> 100 µM"
  },
  {
    "compound": "Cc1cc2nc3c(C#N)c(-c4ccccc4)/c(=C\\Nc4ccc(Cl)cc4)c(=O)n3c2cc1C",
    "TGI": "> 100 µM"
  },
  {
    "compound": "O=C(Cc1nc2ccccc2s1)Nc1ccc(Cl)cc1",
    "TGI": "> 100 µM"
  },
  {
    "compound": "CC1=C(C)CC(C#N)(C#N)C(C#N)(C#N)C1",
    "TGI": "> 10 µM"
  },
  {
    "compound": "Cn1c2c(c3ccccc31)CCN1OCC=C[C@@H](C(=O)O)[C@@H]21",
    "TGI": "> 100 µM"
  },
  {
    "compound": "CC(C)N(C(=O)C1(C)CC1)C(C)C",
    "TGI": "> 100 µM"
  },
  {
    "compound": "CCN1CCN(c2nc3ccccc3nc2C(=O)c2ccc(OC)cc2)CC1",
    "TGI": "> 100 µM"
  },
  {
    "compound": "C[C@H]1CC[C@H]([C@@H](C)[C@H]2[C@@H](O)C[C@H]3[C@@H]4CC[C@H]5C[C@@H](O)CC[C@]5(C)[C@H]4CC[C@]23C)NC1",
    "TGI": "30.9 µM"
  },
  {
    "compound": "Nc1ccc(Oc2ccc(C3(c4ccc(Oc5ccc(N)cc5)cc4)C4CC5C6CC7CC5C3C(C7)C6C4)cc2)cc1",
    "TGI": "> 100 µM"
  },
  {
    "compound": "CC1C(=NO)C(C)C(c2ccccc2)N(N=O)C1c1ccccc1 (centres undefined)",
    "TGI": "39.1 µM"
  },
  {
    "compound": "Cc1nnc(N=Nc2c(O)[nH]c3c(Cl)cc(Cl)cc23)n1N",
    "TGI": "> 100 µM"
  },
  {
    "compound": "O=C(CSc1nnc(Cc2ccccc2)o1)Nc1cccc(Cl)c1",
    "TGI": "> 100 µM"
  },
  {
    "compound": "c1ccc(CSc2ccccc2CN2CCN(Cc3ccccc3SCc3ccccc3)CCN(Cc3ccccc3SCc3ccccc3)CC2)cc1",
    "TGI": "7.66 µM"
  },
  {
    "compound": "CC(C)(C)N1C(=O)c2ccccc2C1(O)C(F)(F)F (centres undefined)",
    "TGI": "> 100 µM"
  },
  {
    "compound": "CC1=C(C(=O)Nc2ccccc2C)C(c2ccc(C3C(C(=O)Nc4ccccc4C)=C(C)NC(C)=C3C(=O)Nc3ccccc3C)cc2)C(C(=O)Nc2ccccc2C)=C(C)N1",
    "TGI": "26.7 µM"
  },
  {
    "compound": "Cc1nc2c(O)cc3c4c(=O)n(C)c(=O)n(C)c4n(Cc4ccccc4)c3c2nc1C",
    "TGI": "31.4 µM"
  },
  {
    "compound": "COc1ccc(/C=N/n2c(=O)[nH]c3ccccc3c2=O)cc1",
    "TGI": "> 100 µM"
  },
  {
    "compound": "N.N.N.N.O=NN1CCCCCC1(P(=O)([O-])[O-])P(=O)([O-])[O-].[Pt+4].[Pt+4]",
    "TGI": "> 100 µM"
  },
  {
    "compound": "O=C(NCCc1ccccc1)[C@H]1CCCC[C@@H]1CCO",
    "TGI": "> 100 µM"
  },
  {
    "compound": "COc1c(C)c2c(c3c1c(=O)c1ccccc1n3C)C=CC(C)(C)O2",
    "TGI": "66 µM"
  }
]
